Origin of values: ChEMBL document CHEMBL4196111

- MEASURED ON: Nuclear receptor ROR-gamma (Mus musculus)
- Sequence (whole entry): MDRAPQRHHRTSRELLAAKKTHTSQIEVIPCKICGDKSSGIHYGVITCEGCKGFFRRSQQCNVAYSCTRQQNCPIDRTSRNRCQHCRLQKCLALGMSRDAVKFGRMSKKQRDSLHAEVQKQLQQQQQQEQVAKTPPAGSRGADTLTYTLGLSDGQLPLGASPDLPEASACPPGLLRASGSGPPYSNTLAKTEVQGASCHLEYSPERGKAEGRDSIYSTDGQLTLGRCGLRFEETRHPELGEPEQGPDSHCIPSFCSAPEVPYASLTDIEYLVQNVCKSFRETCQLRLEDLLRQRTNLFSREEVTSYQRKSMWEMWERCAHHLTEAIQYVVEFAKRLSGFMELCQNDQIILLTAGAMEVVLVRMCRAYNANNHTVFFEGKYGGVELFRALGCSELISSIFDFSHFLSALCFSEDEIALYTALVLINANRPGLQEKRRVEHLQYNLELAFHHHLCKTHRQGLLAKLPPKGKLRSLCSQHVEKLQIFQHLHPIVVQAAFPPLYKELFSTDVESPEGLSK
- ASSAY REMARKS: Modulation of RORgammat in mouse Th17 cells assessed as […] IL17A production at 3 uM relative to control
- Format: cell-based

{"COMPOUND": "CCS(=O)(=O)c1ccc(CNC(=O)c2ccc3c(n2)CCCN3c2cc(C3CC3)nc(C3CC3)c2)nc1", "Activity [%]": 533}
{"COMPOUND": "CS(=O)(=O)c1ccc(CNC(=O)c2ccc3c(c2)OCCC3c2cc(C3CC3)nc(C3CC3)c2)nc1 (stereo not drawn)", "Activity [%]": 443}
{"COMPOUND": "CS(=O)(=O)c1ccc(CNC(=O)c2ccc3c(n2)OCCN3c2cc(C3CC3)nc(C3CC3)c2)c(F)c1", "Activity [%]": 324}
{"COMPOUND": "CS(=O)(=O)c1ccc(CNC(=O)c2ccc3c(n2)CCCN3c2cc(C3CC3)nc(C3CC3)c2)c(C(N)=O)c1", "Activity [%]": 483}
{"COMPOUND": "CS(=O)(=O)c1ccc(CNC(=O)c2ccc3c(n2)OCCN3c2cc(C3CC3)nc(C3CC3)c2)cc1", "Activity [%]": 373}
{"COMPOUND": "CS(=O)(=O)c1ccc(CNC(=O)c2ccc3c(n2)CCCN3c2cc(C3CC3)nc(C3CC3)c2)nc1", "Activity [%]": 452}
{"COMPOUND": "CCOC(=O)c1cc(S(=O)(=O)CC)ccc1CNC(=O)c1ccc2c(n1)CCCN2c1cc(C2CC2)nc(C2CC2)c1", "Activity [%]": 572}
{"COMPOUND": "CS(=O)(=O)c1ccc(C(CO)NC(=O)c2ccc3c(n2)CCCN3c2cc(C3CC3)nc(C3CC3)c2)cc1 (stereo not drawn)", "Activity [%]": 533}
